# Measured On: human JAK1 (a.a. 837-1142) catalytic domain (Homo sapiens)
pIC50: −log10 of the molar value. Where a name gives a salt, the structure may show the parent alone.
Endpoint Name: pIC50

INSERT INTO assay_data (compound, result) VALUES
  ('Cc1[nH]ncc1-c1cnn(C2(CC#N)CN(c3cnc(C(=O)N[C@@H](C)C(F)(F)F)cn3)C2)c1 [Example 1, trifluoroacetate]', '> 6.52'),
  ('Cc1n[nH]c(C)c1-c1cnn(C2(CC#N)CN(c3cnc(C(=O)NC(C)C)cn3)C2)c1 [Example 8]', '> 6.52'),
  ('Cc1nn(C2(CC#N)CN(c3cnc(C(=O)NC(C)C)cn3)C2)cc1-c1cn[nH]c1 [Example 10, trifluoroacetate]', '6.00 to 6.52'),
  ('C[C@H](NC(=O)c1cc(F)c(N2CC(CC#N)(n3cc(-c4c[nH]nc4CO)cn3)C2)cc1F)C(F)(F)F [Example 12, trifluoroacetate]', '6.00 to 6.52'),
  ('Cc1n[nH]cc1-c1cnn(C2(CC#N)CN(c3cnc(C(=O)NC(C)C)cn3)C2)c1 [Example 2, trifluoroacetate]', '> 6.52'),
  ('C[C@H](NC(=O)c1cc(F)c(N2CC(CC#N)(n3cc(-c4cn[nH]c4)cn3)C2)cc1F)C(F)(F)F [Example 5, trifluoroacetate]', '6.00 to 6.52'),
  ('Cc1n[nH]cc1-c1cnn(C2(CC#N)CN(c3cc(F)c(C(=O)N[C@@H](C)C(F)(F)F)cc3F)C2)c1 [Example 4, trifluoroacetate]', '> 6.52'),
  ('CCc1n[nH]cc1-c1cnn(C2(CC#N)CN(c3cnc(C(=O)N[C@@H](C)C(F)(F)F)cn3)C2)c1 [Example 11, trifluoroacetate]', '6.00 to 6.52'),
  ('Cc1n[nH]cc1-c1cn(C2(CC#N)CN(c3cnc(C(=O)NC(C)C)cn3)C2)nc1C [Example 6, trifluoroacetate]', '> 6.52'),
  ('Cc1n[nH]c(C)c1-c1cnn(C2(CC#N)CN(c3cnc(C(=O)N[C@@H](C)C(F)(F)F)cn3)C2)c1 [Example 9, trifluoroacetate]', '> 6.52'),
  ('Cc1n[nH]cc1-c1cnn(C2(CC#N)CN(c3ccc(C(=O)NC(C)C)cc3)C2)c1 [Example 3, trifluoroacetate]', '> 6.52');

* * *

Recorded below: pIC50, system human JAK2 (a.a. 828-1132) catalytic domain (Homo sapiens (Human), UniProt O60674).
pIC50: −log10 of the molar value. Structures can show the parent of a compound that is named as a salt.
Endpoint Name: pIC50

INSERT INTO measurements (compound, measured_on, endpoint_name, result) VALUES
  ('Cc1n[nH]cc1-c1cnn(C2(CC#N)CN(c3ccc(C(=O)NC(C)C)cc3)C2)c1 [Example 3, trifluoroacetate]', 'human JAK2 (a.a. 828-1132) catalytic domain (Homo sapiens (Human), UniProt O60674)', 'pIC50', '< 6.00'),
  ('Cc1n[nH]c(C)c1-c1cnn(C2(CC#N)CN(c3cnc(C(=O)N[C@@H](C)C(F)(F)F)cn3)C2)c1 [Example 9, trifluoroacetate]', 'human JAK2 (a.a. 828-1132) catalytic domain (Homo sapiens (Human), UniProt O60674)', 'pIC50', '6.00 to 6.52'),
  ('C[C@H](NC(=O)c1cc(F)c(N2CC(CC#N)(n3cc(-c4c[nH]nc4CO)cn3)C2)cc1F)C(F)(F)F [Example 12, trifluoroacetate]', 'human JAK2 (a.a. 828-1132) catalytic domain (Homo sapiens (Human), UniProt O60674)', 'pIC50', '< 6.00'),
  ('CCc1n[nH]cc1-c1cnn(C2(CC#N)CN(c3cnc(C(=O)N[C@@H](C)C(F)(F)F)cn3)C2)c1 [Example 11, trifluoroacetate]', 'human JAK2 (a.a. 828-1132) catalytic domain (Homo sapiens (Human), UniProt O60674)', 'pIC50', '< 6.00'),
  ('Cc1[nH]ncc1-c1cnn(C2(CC#N)CN(c3cnc(C(=O)N[C@@H](C)C(F)(F)F)cn3)C2)c1 [Example 1, trifluoroacetate]', 'human JAK2 (a.a. 828-1132) catalytic domain (Homo sapiens (Human), UniProt O60674)', 'pIC50', '< 6.15'),
  ('Cc1n[nH]cc1-c1cnn(C2(CC#N)CN(c3cnc(C(=O)NC(C)C)cn3)C2)c1 [Example 2, trifluoroacetate]', 'human JAK2 (a.a. 828-1132) catalytic domain (Homo sapiens (Human), UniProt O60674)', 'pIC50', '6.00 to 6.52'),
  ('Cc1nn(C2(CC#N)CN(c3cnc(C(=O)NC(C)C)cn3)C2)cc1-c1cn[nH]c1 [Example 10, trifluoroacetate]', 'human JAK2 (a.a. 828-1132) catalytic domain (Homo sapiens (Human), UniProt O60674)', 'pIC50', '< 6.00'),
  ('C[C@H](NC(=O)c1cc(F)c(N2CC(CC#N)(n3cc(-c4cn[nH]c4)cn3)C2)cc1F)C(F)(F)F [Example 5, trifluoroacetate]', 'human JAK2 (a.a. 828-1132) catalytic domain (Homo sapiens (Human), UniProt O60674)', 'pIC50', '< 6.00'),
  ('Cc1n[nH]cc1-c1cn(C2(CC#N)CN(c3cnc(C(=O)NC(C)C)cn3)C2)nc1C [Example 6, trifluoroacetate]', 'human JAK2 (a.a. 828-1132) catalytic domain (Homo sapiens (Human), UniProt O60674)', 'pIC50', '< 6.00');
